Attribution: the RNAGym collection of RNA variant scans (doi:10.7554/elife.80360)

B1: CPEB3 Ribozyme (parent)
chain: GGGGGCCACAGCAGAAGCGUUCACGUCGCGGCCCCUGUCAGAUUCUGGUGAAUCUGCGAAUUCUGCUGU

Variants of: B1
procedure_text: self-cleavage, relative activity (ratio to wild type); higher = more cleavage; co-transcriptional
Mark yes (1) for reported self-cleavage of 0.5 or greater; mark no (0) for anything smaller.

Study these solved cases before continuing.
[[record]]
variant_description = "G25A U49A"
classification = "no (0)"

[[record]]
variant_description = "C6U U21A"
classification = "yes (1)"

[[record]]
variant_description = "C32A U62G"
classification = "no (0)"

[[record]]
variant_description = "G25C G58U"
classification = "no (0)"

[[record]]
variant_description = "C32U G47A"
classification = "yes (1)"

[[record]]
variant_description = "U38G C63U"
classification = "no (0)"


input: Tell me whether self-cleavage is at least 0.5 here: G14A U26C
output: no (0)
